ASSAY_METHOD_TEXT: A CellTox Green Cytotoxicity Assay to monitor cytotoxicity in HepG2 cells - 40 hour (AID 1224879); further: nearly all actives have a fitted effect of over 40% in size
CONDITION_DESCRIPTION: CellTox Green fluorescence; series mostly up to 76.8 µM
Results filed as inconclusive are left out. The source made the active and inactive calls. The call rests on the fitted dose curve; in most records, active means well fitted activation curve with a large enough effect in the repeat runs; inconclusive means weak or mixed curves; inactive means flat fitted curve, though single readings scatter.
Could you please pick one outcome from this set? active, inactive

Worked examples, 3 molecules total:
| MOLECULE | CLASS_ASSIGNMENT |
| --- | --- |
| Clc1ccc2c(c1)Nc1ccccc1S2 | inactive |
| O=C1CCCc2c(O)cccc21 | active |
| CC(=O)OC/C=C(/C)CCC=C(C)C | inactive |

Prompt line: # fetch the recorded call for CCCCOCCCC here
Response line: inactive

Prompt line: # fetch the recorded call for O=C(c1ccccc1)c1cccc(O)c1 here
Response line: inactive

Prompt line: # fetch the recorded call for CCC(C)c1nccnc1OC (centres undefined) here
Response line: inactive

Prompt line: # fetch the recorded call for CCCCCCCCCCCC(C)=O here
Response line: inactive

Prompt line: # fetch the recorded call for CC(C)(C)OC(=O)c1ccccc1C(=O)O here
Response line: inactive

###

ASSAY_METHOD_TEXT: qHTS assay for small molecule agonists of the antioxidant response element (ARE) signaling pathway (AID 743202); further: on the % scale 0 is the no-effect control and ±100 the full control effect
CONDITION_DESCRIPTION: HepG2 ARE-bla reporter, beta-lactamase FRET, 16 h; series mostly up to 73.3 µM
Records with an inconclusive call do not appear. Calls of active or inactive are those of the source. Calls come from the whole dose curve; as a rule, active = well fitted activation curve with a large enough effect in the signal ratio in the repeat runs (not every such curve was filed as active); inconclusive = weak or mixed curves, or effect the other way; inactive = no such curve, though single readings can be large or run the other way; the % refers to the signal ratio.
Could you please pick one outcome from this set? t (active), f (inactive)

Worked examples, 6 compounds total:
| COMPOUND | CLASS_ASSIGNMENT |
| --- | --- |
| C=CCN1CCc2nc(N)sc2CC1 | f |
| CC(C)CC(O)Cc1ccccc1 (configuration not stated) | f |
| CCOC(=O)CC(C(C)=O)C(C)=O | f |
| C=CCn1cc[n+](C)c1 | f |
| Cc1ccc(NC(N)=O)cc1 | f |
| COC(=O)c1ccc(C(=O)O)cc1 | f |

Prompt line: # fetch the recorded call for O=P(O)(O)C(O)(Cc1cccnc1)P(=O)(O)O here
Response line: f

Prompt line: # fetch the recorded call for O=C(O)P(=O)(O)O here
Response line: f

Prompt line: # fetch the recorded call for CCN1CCN(C(=O)N[C@@H](C(=O)N[C@@H]2C(=O)N3[C@@H]2SC(C)(C)[C@H]3C(=O)O)c2ccccc2)C(=O)C1=O here
Response line: f

Prompt line: # fetch the recorded call for C=CCON/C(CCC)=C1\C(=O)CC(C)(C)C(C(=O)OC)=C1O here
Response line: f

Prompt line: # fetch the recorded call for Cc1ccc2cccnc2c1 here
Response line: f

Prompt line: # fetch the recorded call for COCc1nnc(-c2ccc[n+]([O-])c2)n1-c1c(Cl)c(Cl)cc2[nH]c(=O)c(=O)[nH]c12 here
Response line: f

###

ASSAY_METHOD_TEXT: qHTS assay to test for compound auto fluorescence at 460 nm (blue) in HEK293 cell free culture (AID 720681); further: on the % scale 0 is the no-effect control and ±100 the full control effect
CONDITION_DESCRIPTION: cell-free medium, autofluorescence 405/460 nm (blue); series mostly up to 91.3 µM
Text: U.S. Tox21 Program National Center for Advancing Translational Sciences [NCATS] NIH Chemical Genomics Center [NCGC] U.S. Environmental Protection Agency [EPA] National Institutes of Environmental Health Sciences [NIEHS] National Toxicology Program [NTP] U.S. Food and Drug Administration [FDA] Tox21 Assay Overview: Compound auto fluorescence often interferes with screening of the compound library against various biological targets and signaling pathways. […] This assay includes the blue fluorescence data. […]
Active and inactive are the calls of the source. Calls come from the whole dose curve; as a rule, active = well fitted curve in the direction sought with a large enough effect in the repeat runs; inconclusive = weak or mixed curves; inactive = flat fitted curve, though single readings scatter.
REPORTED_METRIC: fluorescence, % of fluorescent control

Please review the entries below; each comes with its answer.
| MOLECULE | fluorescence, % of fluorescent control |
| --- | --- |
| Cc1ccc(S(=O)(=O)NC(=O)NN2CC3CCCC3C2)cc1 (stereo not given) | 0.0029% [at 18.6 µM] (inactive) |
| Cc1ccc(Br)cc1 | inactive |
| CC(C)(O)CCCC1=CCC(C=O)CC1 (stereo not given) | inactive |
| C=CCON/C(CCC)=C1\C(=O)CC(C)(C)C(C(=O)OC)=C1O | inactive |
| Cc1cc(O)c(Cl)cc1C | inactive |

For the 2 molecules below, give their fluorescence, % of fluorescent control values.
1. O=C(O)CCC(=O)Nc1ccc(S(=O)(=O)Nc2nccs2)cc1
2. C=CC(=O)CC

Response line:
1: -0.0604% [at 18.6 µM] (inactive); 2: inactive

###

TARGET_ENTITY: Luciferin 4-monooxygenase (Photinus pyralis) (UniProt P08659)
Sequence (P08659 whole entry, looked up): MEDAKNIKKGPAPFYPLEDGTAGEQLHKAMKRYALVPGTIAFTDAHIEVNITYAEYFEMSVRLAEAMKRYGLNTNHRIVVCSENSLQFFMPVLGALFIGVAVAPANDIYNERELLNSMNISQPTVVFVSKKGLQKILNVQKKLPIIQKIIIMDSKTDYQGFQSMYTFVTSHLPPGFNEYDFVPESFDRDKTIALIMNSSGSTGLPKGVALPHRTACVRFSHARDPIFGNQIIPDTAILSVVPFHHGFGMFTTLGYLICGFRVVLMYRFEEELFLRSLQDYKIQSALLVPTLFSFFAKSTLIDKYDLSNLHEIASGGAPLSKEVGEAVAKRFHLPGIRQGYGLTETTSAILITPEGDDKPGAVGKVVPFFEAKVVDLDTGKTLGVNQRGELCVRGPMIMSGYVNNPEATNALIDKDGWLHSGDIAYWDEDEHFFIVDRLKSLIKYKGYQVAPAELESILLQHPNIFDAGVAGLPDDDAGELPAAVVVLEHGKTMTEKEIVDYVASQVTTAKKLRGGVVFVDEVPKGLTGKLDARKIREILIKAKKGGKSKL
ASSAY_METHOD_TEXT: qHTS assay to identify small molecule inhibitors of firefly luciferase (AID 1224835); further: nearly all actives have a fitted effect of over 25% in size
CONDITION_DESCRIPTION: purified P. pyralis luciferase, luminescence inhibition; series mostly up to 115 µM
Records with an inconclusive call do not appear. Calls of active or inactive are those of the source. The call rests on the fitted dose curve; in most records, active means well fitted inhibition curve with a large enough effect in the repeat runs; inconclusive means weak or mixed curves; inactive means flat fitted curve, though single readings scatter.
Could you please pick one outcome from this set? yes for active, no for inactive

Worked examples, 3 compounds total:
| COMPOUND | CLASS_ASSIGNMENT |
| --- | --- |
| BrCCOc1ccccc1 | no |
| CC(C)c1cc(C(C)C)cc(C(C)C)c1 | no |
| CCCCCCC(O)CO (stereo not drawn) | no |

Prompt line: # fetch the recorded call for CC(=O)OCC(=O)[C@@]1(O)CC[C@H]2[C@@H]3CCC4=CC(=O)C=C[C@]4(C)[C@H]3[C@@H](O)C[C@@]21C here
Response line: no

Prompt line: # fetch the recorded call for CCCCN1C(=O)c2ccccc2C1=O here
Response line: no

Prompt line: # fetch the recorded call for COc1ccccc1N1CCN(CC(O)COc2cc(OC)c(OC)c(OC)c2)CC1 (stereo not drawn) here
Response line: no

Prompt line: # fetch the recorded call for CCCCCCCCCCCCCCCC/C=C/C1CC(=O)OC1=O (stereo not drawn) here
Response line: no

Prompt line: # fetch the recorded call for CCc1ncc(C)[nH]1 here
Response line: no

Prompt line: # fetch the recorded call for CC(CN1CC(=O)NC(=O)C1)N1CC(=O)NC(=O)C1 (stereo not drawn) here
Response line: no

Prompt line: # fetch the recorded call for Cc1cc(N)no1 here
Response line: no

Prompt line: # fetch the recorded call for CCCCCCCCCCCCCC(=O)OCC here
Response line: no

Prompt line: # fetch the recorded call for CC12CCCC=C1C(=O)OC2=O (stereo not drawn) here
Response line: no

Prompt line: # fetch the recorded call for CC(C)(C)c1ccc(N)cc1 here
Response line: no

Prompt line: # fetch the recorded call for CN1C(CCl)Nc2cc(Cl)c(S(N)(=O)=O)cc2S1(=O)=O (stereo not drawn) here
Response line: no

Prompt line: # fetch the recorded call for O=C(O)CCC(=O)Nc1ccc(S(=O)(=O)Nc2nccs2)cc1 here
Response line: no

Prompt line: # fetch the recorded call for O=C(O)COc1ccc2ccccc2c1 here
Response line: yes

Prompt line: # fetch the recorded call for NC(=O)CC[C@@H](N)C(=O)O here
Response line: no

Prompt line: # fetch the recorded call for C[C@]12C=CC(=O)C=C1[C@@H](F)C[C@@H]1[C@@H]2[C@@H](O)C[C@@]2(C)[C@H]1CC[C@]2(O)C(=O)CO here
Response line: no

Prompt line: # fetch the recorded call for O=C1CC2(CCCC2)CC(=O)N1CCNCC1COc2ccccc2O1 (stereo not drawn) here
Response line: no

Prompt line: # fetch the recorded call for N[C@H]1C(O)O[C@H](CO)[C@@H](O)[C@@H]1O (stereo partly drawn) here
Response line: no

Prompt line: # fetch the recorded call for C=C(C)C(=O)OCCOC1CC2CC1C1C=CCC21 (stereo not drawn) here
Response line: no

Prompt line: # fetch the recorded call for CC(C)(C)C(=O)CCc1ccc(Cl)cc1 here
Response line: no

Prompt line: # fetch the recorded call for CCCCNCC here
Response line: no

Prompt line: # fetch the recorded call for N=C(N)N here
Response line: no

Prompt line: # fetch the recorded call for CCC(C)SSC(C)CC (stereo not drawn) here
Response line: no

Prompt line: # fetch the recorded call for Cc1cc(O)c(Cl)cc1C here
Response line: no

Prompt line: # fetch the recorded call for NNC(=O)CCCCC(=O)NN here
Response line: no

Prompt line: # fetch the recorded call for CCCCC(O)/C=C(C)/C=C/C=C/C(=O)N1CCCC1=O (stereo not drawn) here
Response line: no

###

TARGET_ENTITY: Nuclear receptor subfamily 1 group I member 2 (Homo sapiens) (UniProt O75469)
Sequence (O75469 whole entry, looked up): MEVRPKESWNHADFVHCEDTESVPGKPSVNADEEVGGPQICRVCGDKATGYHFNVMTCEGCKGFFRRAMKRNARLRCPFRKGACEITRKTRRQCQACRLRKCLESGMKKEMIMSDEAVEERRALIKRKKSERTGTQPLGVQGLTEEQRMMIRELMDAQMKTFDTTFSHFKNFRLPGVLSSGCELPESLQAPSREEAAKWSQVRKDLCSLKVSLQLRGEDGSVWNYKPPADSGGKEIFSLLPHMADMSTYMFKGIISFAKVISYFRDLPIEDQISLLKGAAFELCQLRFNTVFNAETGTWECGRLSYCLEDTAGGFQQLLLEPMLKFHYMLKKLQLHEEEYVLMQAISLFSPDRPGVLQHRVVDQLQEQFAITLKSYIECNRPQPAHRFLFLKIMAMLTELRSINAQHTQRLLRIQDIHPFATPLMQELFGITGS
ASSAY_METHOD_TEXT: Human pregnane X receptor (PXR) small molecule agonists, qHTS assay (AID 1346982); further: on the % scale 0 is the no-effect control and ±100 the full control effect; nearly all actives have a fitted effect of over 35% in size
CONDITION_DESCRIPTION: PXR-Luc HepG2, CYP3A4 luciferase reporter, 24 h; series mostly up to 92.4 µM
Records with an inconclusive call do not appear. Active and inactive are the calls of the source. Calls follow the shape of the dose curve; as a rule, active = well fitted activation curve with a large enough effect in the repeat runs; inconclusive = weak or mixed curves; inactive = no such curve, though single readings can be large or run the other way.
Could you please pick one outcome from this set? 1 (active), -1 (inactive)

| SMILES_STRING | CLASS_ASSIGNMENT |
| --- | --- |
| CCCCCCCCOCCC#N | -1 |
| C=CCN(CC=C)CC=C | -1 |
| OCCC(F)(F)C(F)(F)C(F)(F)C(F)(F)C(F)(F)C(F)(F)F | -1 |

Please examine the following record next.
Prompt line: # fetch the recorded call for C[C@]12C=CC(=O)C=C1[C@@H](F)C[C@@H]1[C@@H]2[C@@H](O)C[C@@]2(C)[C@H]1CC[C@]2(O)C(=O)CO here
Response line: -1

These data points were gathered from PubChem BioAssay (Tox21).
